molecular target: PIM2 (Homo sapiens); assay: KinaseGlo Pim2 ATP depletion assay; format: biochemical
Sequence (Q9P1W9 whole entry): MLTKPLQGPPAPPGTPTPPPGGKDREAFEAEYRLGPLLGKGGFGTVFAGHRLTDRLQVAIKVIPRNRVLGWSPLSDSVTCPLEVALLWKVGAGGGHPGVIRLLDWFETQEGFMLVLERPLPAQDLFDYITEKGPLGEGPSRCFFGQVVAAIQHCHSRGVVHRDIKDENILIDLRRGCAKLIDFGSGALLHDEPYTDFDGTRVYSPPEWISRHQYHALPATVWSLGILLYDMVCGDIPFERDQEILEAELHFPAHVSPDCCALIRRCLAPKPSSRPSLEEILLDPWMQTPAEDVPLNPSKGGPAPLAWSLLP
pIC50 for assorted compounds
For clarity, pIC50 is expressed as the negative log10 of concentration in mol/L.

Worked examples follow.
Returns the measured pIC50 for the input compound. Input: O=C(Nc1cnccc1[C@@H]1C[C@H](O)CC2(CC2)O1)c1csc(-c2c(F)cccc2F)n1 [Example 62] 6.49

Returns the measured pIC50 for the input compound. Input: C[C@H]1O[C@@H](c2ccncc2NC(=O)c2csc(-c3c(F)cccc3F)n2)[C@H](F)[C@@H](O)[C@]1(C)O (stereo in doubt) [Example 68] 5.47

Returns the measured pIC50 for the input compound. Input: CC1(C)O[C@H](c2ccncc2NC(=O)c2csc(-c3c(F)cccc3F)n2)C[C@@H](O)[C@H]1O [Example 90] 6.30

Returns the measured pIC50 for the input compound. Input: Nc1cc(F)c(-c2c(F)cccc2F)nc1C(=O)Nc1cnccc1[C@H]1C[C@@H](O)[C@H](O)[C@@H](CCl)O1 [Example 35] 9.00

Returns the measured pIC50 for the input compound. Input: CC[C@H]1O[C@@H](c2ccncc2NC(=O)c2ccc(F)c(-c3c(F)cccc3F)n2)C[C@@H](O)[C@H]1C#N [Example 200] 7.33

Returns the measured pIC50 for the input compound. Input: C[C@H]1O[C@@H](c2ccncc2NC(=O)c2csc(-c3c(F)cccc3F)n2)C[C@@H](N)[C@@H]1O [Example 114] 6.84

Returns the measured pIC50 for the input compound. Input: C[C@@H]1O[C@H](c2ccncc2NC(=O)c2ccc(F)c(-c3c(F)cccc3F)n2)[C@@H](F)[C@H](O)[C@@]1(C)O (stereo in doubt) [Example 71] 7.28

Returns the measured pIC50 for the input compound. Input: O=C(Nc1cnccc1[C@]1(C(F)(F)F)C[C@H](O)CCO1)c1ccc(F)c(-c2c(F)cccc2F)n1 [Example 50] 5.67

Returns the measured pIC50 for the input compound. Input: O=C(Nc1cnccc1[C@H]1C[C@@H](O)CC2(CC2)O1)c1ccc(F)c(-c2c(F)cccc2F)n1 [Example 59] 6.79

Returns the measured pIC50 for the input compound. Input: O=C(Nc1cnccc1[C@H]1C[C@@H](O)[C@H](O)[C@@H](C2CC2)O1)c1cccc(-c2c(F)cccc2F)n1 [Example 208] 8.06

More entries:
Returns the measured pIC50 for the input compound. Input: C[C@H]1O[C@@H](c2ccncc2NC(=O)c2cncc(-c3ccccc3)n2)C[C@@H](O)[C@]1(C)O [Example 85] 4.69
